- tested_system: T1, human CCR8 (human, UniProt P51685 1-355)
- T1 construct: whole, on cells; also called hCCR8
- T1 sequence (P51685 whole entry): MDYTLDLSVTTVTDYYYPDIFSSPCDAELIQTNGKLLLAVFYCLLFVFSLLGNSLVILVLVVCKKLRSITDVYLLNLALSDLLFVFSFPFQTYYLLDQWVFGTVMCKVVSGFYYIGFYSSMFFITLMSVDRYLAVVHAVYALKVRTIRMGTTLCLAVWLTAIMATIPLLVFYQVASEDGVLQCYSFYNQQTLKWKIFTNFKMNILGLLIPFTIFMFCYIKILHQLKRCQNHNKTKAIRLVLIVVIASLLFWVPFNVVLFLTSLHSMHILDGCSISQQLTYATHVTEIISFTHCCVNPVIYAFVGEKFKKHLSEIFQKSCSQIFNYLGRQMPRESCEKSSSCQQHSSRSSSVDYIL
- protocol_text: FACS, competition with AF647-human CCL1 on CHO-K1-human CCR8 cells
Entries annotated with measured pIC50
Notebook: values listed as pIC50 are -log10 of the concentration (mol/L).

- Hu149-6 (antibody, V domains shown, humanized IgG) VH: EVQLVESGGGLVQPGGSLKLSCAASGFTFNTYAMHWVRQASGKGLEWVGRIRSKSNFYATYYAASVKGRFTISRDDSKNTAYLQMNSLKTEDTAVYYCVRGRDYGSSYAMDYWGQGTLVTVSS VL: DIVMTQSPLSLPVTPGEPASISCRSSKSLLHSNANTYLYWYLQKPGQSPQLLIYRMSNLASGVPDRFSGSGSGTDFTLKISRVEAEDVGVYYCMQHLEYPLTFGGGTKVELK: 8.63
- Hu149-1 (antibody, V domains shown, humanized IgG, detected with anti-human IgG) VH: EVQLVESGGGLVQPGGSLKLSCAASGFTFNTYAMNWVRQASGKGLEWVGRIRSKSNFYATYYAASVKGRFTISRDDSKNTAYLQMNSLKTEDTAVYYCVRGRDYGSSYAMDYWGQGTLVTVSS VL: DIVMTQSPLSLPVTPGEPASISCRSSKSLLHSNANTYLYWFLQKPGQSPQLLIYRMSNLASGVPDRFSGSGSGTDFTLKISRVEAEDVGVYYCMQHLEYPLTFGGGTKVELK: 9.03
- Hu149-5 (antibody, V domains shown, humanized IgG) VH: EVQLVESGGGLVQPGGSLKLSCAASGFTFNTYAMNWVRQASGKGLEWVGRIRSKSNFYATYYAASVKGRFTISRDDSKNTAYLQMNSLKTEDTAVYYCVRGRDYGSSYAMDYWGQGTLVTVSS VL: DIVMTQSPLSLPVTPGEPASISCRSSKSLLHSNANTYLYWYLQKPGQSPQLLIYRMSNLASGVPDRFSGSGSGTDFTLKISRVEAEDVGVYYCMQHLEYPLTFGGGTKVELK: 7.30
- Hu149-8 (antibody, V domains shown, humanized IgG) VH: EVQLVESGGGLVQPGGSLKLSCAASGFTFNTYAMNWVRQASGKGLEWVGRIRSKSNFYATYYAASVKGRFTISRDDSKNTAYLQMNSLKTEDTAVYYCTRGRDYGSSYAMDYWGQGTLVTVSS VL: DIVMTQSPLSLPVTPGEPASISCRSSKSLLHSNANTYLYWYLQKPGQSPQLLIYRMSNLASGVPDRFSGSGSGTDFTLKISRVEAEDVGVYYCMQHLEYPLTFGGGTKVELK: 8.91

Kindly review the next binder as well.
Exercise: What measured pIC50 goes with Hu149-2 (antibody, V domains shown, humanized IgG) VH: EVQLVESGGGLVQPGGSLKLSCAASGFTFNTYAMHWVRQASGKGLEWVGRIRSKSNFYATYYAASVKGRFTISRDDSKNTAYLQMNSLKTEDTAVYYCVRGRDYGSSYAMDYWGQGTLVTVSS VL: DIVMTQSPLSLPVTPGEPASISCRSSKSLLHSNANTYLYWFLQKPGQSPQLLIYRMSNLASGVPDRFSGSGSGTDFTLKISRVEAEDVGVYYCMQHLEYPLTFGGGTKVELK ?
Key: 7.90

Reference source for all entries: patent US20250034266A1
